tested on: KM12 colon; assay: NCI-60 one-dose screen, 48 h; conditions: 10 µM unless noted
This is part of a sample that, as a whole, favours compounds with a hit. Of some 83,000 tested, about 20% had one in any assay. Activity calls are given as the source filed them. How the source made its calls: active means growth percent below 10; inactive means the rest.
Labels: true (active), false (inactive)

{"columns": ["compound", "label-value"],
 "data": [
  ["CC(=O)N1N=C(c2ccc(Nc3nc(Nc4ccc(Cl)cc4)nc(Nc4ccc(Cl)cc4)n3)cc2)CC1c1ccco1 (stereo not drawn)", "false"],
  ["COc1cnc2c(c1)C(=O)c1c-2n(CCCNCCO)c(=O)c2ccncc12", "true"],
  ["COc1ccc(-c2cc(-c3ccc(Cl)cc3)c(C#N)c(=O)n2CCCCC(=O)Nc2ccccc2N)cc1", "false"],
  ["CO[C@]12C=C/C(=C(/C(=O)OCc3cccnc3)C(=O)CCCCCCCC[C@@]3(OC)C=C/C(=C(/C(=O)OCc4cccnc4)C(=O)CCCCCCCC1)O3)O2", "true"],
  ["CCC(C)N(c1ccc(Cl)cc1)c1nc(-c2ccc(Br)cc2)cs1 (stereo not drawn)", "false"],
  ["COc1ccc2c(O)c(/C=C3\\N=Nc4ccccc43)oc2c1C[C@@H]1CCNC[C@H]1F", "false"],
  ["C=C(C)[C@@H]1CC[C@]2(C(=O)NCCNCCN)CC[C@]3(C)[C@H](CC[C@@H]4[C@@]5(C)C/C(=C/c6ccncc6)C(=O)C(C)(C)[C@@H]5CC[C@]43C)[C@@H]12", "false"],
  ["Cc1cccc(Cl)c1NC(=O)c1ccc2nc(NC(=O)NCCN(C)C)sc2c1", "false"],
  ["O=[N+]([O-])c1ccc(S(=O)(=O)N2CCN(C3=NS(=O)(=O)c4ccccc4N3c3ccccc3)CC2)cc1", "false"],
  ["O=C(NCCCCNC(=O)OCc1ccc2c(Cl)cc(Cl)c(O)c2n1)OCc1ccc2c(Cl)cc(Cl)c(O)c2n1", "true"],
  ["Nc1c(C(=O)Nc2ccccc2Cl)sc2nc3c(cc12)C(O)CCC3 (stereo not drawn)", "false"],
  ["CCS/C(Nc1ccccc1)=C(\\C#N)C(=O)N/N=C/c1ccc(Cl)cc1Cl", "false"],
  ["O=C(O)CNC1=C(Cl)C(=O)c2ccccc2C1=O", "false"],
  ["CN(C)Cc1ccc(NC(=O)c2cncc(C#Cc3cnc(N)c4ncccc34)c2)cc1F", "true"],
  ["CCOC(=O)c1c(NC(=O)c2ccc(C(C)C)cc2)sc2c(CN(C)C)c(O)ccc12", "true"],
  ["O=C(/C=C/c1ccc(Cl)cc1)c1cccc(Nc2nc(Nc3ccccc3)nc(Nc3ccccc3)n2)c1", "false"],
  ["O=C1C(Cl)=C(Oc2ccccc2)C(=O)c2ccccc21", "false"],
  ["CCN(CC)C(=S)SC(SC(=S)N(CC)CC)C(=O)c1nnn(-c2ccc([N+](=O)[O-])cc2)c1C", "false"]
]}

###

tested on: NCI-H522 lung; assay: NCI-60 one-dose screen, 48 h (100 = growth as untreated, 0 = no growth, -100 = all killed); conditions: 10 µM unless noted
This is part of a sample that, as a whole, favours compounds with a hit. Of some 83,000 tested, about 20% had one in any assay.
Record fulfilled whenever growth is at 60% or higher; record not fulfilled when lower.

{"columns": ["compound", "label-value"],
 "data": [
  ["COc1cc(-c2nc3cc(Cl)c(Cl)cc3[nH]2)ccc1OCC(=O)N=Nc1c(O)[nH]c2ccc([N+](=O)[O-])cc12", "fulfilled"],
  ["COc1ccc2[nH]cc(-c3nc(-c4cn(C)c5c(Cl)nccc45)cs3)c2c1", "not fulfilled"],
  ["CNC(=O)c1cc(Oc2ccc3nc(NC(C)=O)sc3c2)ccn1", "fulfilled"],
  ["CCn1c(=S)sc2c(Nc3ccc(F)cc3)nc(-c3cccnc3)nc21", "not fulfilled"],
  ["OCCNCCCOc1ccc2ncnc(Nc3ccc(Oc4cccc(C(F)(F)F)c4)c(Cl)c3)c2c1", "not fulfilled"],
  ["N#Cc1c(-c2ccc(Cl)cc2)nc(SCC(=O)NC2=NN=C(c3ccccc3)CS2)[nH]c1=O", "fulfilled"],
  ["CCOC(=O)C1=C(NC)OCC1=O", "fulfilled"],
  ["COC(=O)[C@H]1CCCN1C[C@@H](O)CN1C(=O)/C(=C\\c2cc(OC)c(OC)c(OC)c2)c2ccccc21", "fulfilled"],
  ["COC(=O)c1cc(-c2ccccc2)[nH]c1N/N=C/c1c(Cl)cccc1Cl", "not fulfilled"],
  ["Cc1cnc(C(=O)NNc2nc3sc4c(c3c(=O)n2C)C(C)CCC4)cn1 (stereo not given)", "not fulfilled"],
  ["O=C(O)c1[nH]c(=O)[nH]c(=O)c1[N+](=O)[O-]", "fulfilled"],
  ["c1ccc(CNc2c3ccccc3nc3ccccc23)cc1", "not fulfilled"],
  ["CCOC(=O)c1c2c(n3ccc(C)cc13)C(=O)c1ccccc1C2=O", "fulfilled"],
  ["CN(CCn1sc(=O)n(Cc2ccccc2)c1=O)Cc1ccc2c(Cl)cc(Cl)c(O)c2n1", "fulfilled"],
  ["COC(=O)CNC(=O)[C@H](Cc1ccccc1)NCc1ccncc1", "fulfilled"],
  ["COc1cc(-c2nc(SCC(C)C)nc(Nc3cccc4ccccc34)c2C#N)cc(OC)c1OC", "fulfilled"],
  ["CN(C)C1CCN(Cc2ccc(NC(=O)c3cncc(C#Cc4cnc(N)c5ncccc45)c3)cc2C(F)(F)F)CC1", "fulfilled"],
  ["Cc1ccc(-c2nc3nc(-c4ccccc4)nc(N4CCNCC4)c3o2)cc1", "not fulfilled"],
  ["Cc1c(-n2nnc(-c3nc4ccccc4s3)c2N)c(=O)n(-c2ccccc2)n1C", "fulfilled"]
]}

###

test system: NCI-H322M lung; test: NCI-60 one-dose screen, 48 h (100 = growth as untreated, 0 = no growth, -100 = all killed); settings: 10 µM unless noted
The panel holds about 83,000 compounds, 20% with a hit somewhere; the sample as a whole holds those more often.

{"columns": ["smiles", "value-unit", "growth"],
 "data": [
  ["COc1ccc(-c2nc(SCC(C)C)nc(N/N=C\\c3ccc(F)cc3)c2C#N)cc1", "%", 67.7],
  ["O=C1C(Cl)=C(Nc2ccc(O)cc2)C(=O)N1Cc1ccc(Cl)cc1", "%", 77],
  ["CCOC(=O)C1=C(NC)OCC1=O", "%", 100],
  ["CCNc1cc(-c2cccc(OC(F)(F)F)c2)nc2ccc(N3CCCC3)cc12", "%", 22.1],
  ["Cc1cccnc1NC(=S)Nc1ncccc1C", "%", 107],
  ["O=C1NC(=O)c2c1c1c3ccccc3ccc1c1[nH]c3ccc(Br)cc3c21", "%", 21]
]}

###

system: ACHN renal; assay: NCI-60 one-dose screen, 48 h; settings: 10 µM unless noted
About 83,000 compounds went through this panel and 20% of them were active in at least one assay; those are over-represented in the sample as a whole. Calls of active or inactive are those of the source. The calls were made as follows: active = growth percent below 10; inactive = the rest.
Possible outcomes: active, inactive

{"columns": ["molecule", "assayed-target", "label-value"],
 "data": [
  ["Cn1cc(-c2csc(-c3ccc(Cl)cc3)n2)c2cccnc21", "ACHN renal", "active"],
  ["CO[C@]12C=C/C(=C(/C(=O)OCc3cccnc3)C(=O)CCCCCCCC[C@@]3(OC)C=C/C(=C(/C(=O)OCc4cccnc4)C(=O)CCCCCCCC1)O3)O2", "ACHN renal", "active"],
  ["O=C(Nn1c2c(sc1=Nc1ccccc1)C(=O)c1ccccc1C2=O)c1cc2ccc1CCc1ccc(cc1)CC2", "ACHN renal", "inactive"],
  ["O=C(CN1C(=O)CCC1=O)Nc1ncc(Cc2ccc(F)cc2)s1", "ACHN renal", "inactive"],
  ["O=C(Cn1cc(CN2CCCCCC2)nn1)Nc1ccc2c(ccn2Cc2ccccc2)c1", "ACHN renal", "inactive"],
  ["O=C(NCCCCNC(=O)OCc1ccc2c(Cl)cc(Cl)c(O)c2n1)OCc1ccc2c(Cl)cc(Cl)c(O)c2n1", "ACHN renal", "inactive"],
  ["N#Cc1c(-c2ccccc2)cc(-c2ccccc2)n(CCCCCC(=O)Nc2ccccc2N)c1=O", "ACHN renal", "inactive"],
  ["COC(=O)/C(CCC=C(C)C)=C1\\[C@@H](OC(C)=O)C[C@@]2(C)[C@H]1C[C@@H](O)[C@H]1[C@@]3(C)CC[C@H](NCCN)[C@@H](C)[C@@H]3CC[C@@]12C", "ACHN renal", "inactive"],
  ["Cc1nnc(-n2c(O)cc(=O)n(-c3ccccc3)c2=S)nc1/C=C/c1ccc(N(C)C)cc1", "ACHN renal", "inactive"],
  ["CN1CCN(Cc2ccc3c(NNC(=O)c4ccccc4)nc4cc(F)ccc4n23)CC1", "ACHN renal", "inactive"],
  ["O=C1Nc2ccccc2[C@]12CC(c1ccccc1)=NN2", "ACHN renal", "inactive"],
  ["COc1ccc(-c2cn(-c3cc(OC)c(OC)c(OC)c3)c(=O)n2C(C)=O)cc1", "ACHN renal", "inactive"],
  ["Cc1ccc(-c2nc3nc(-c4ccc(F)cc4)nc(N4CCNCC4)c3o2)cc1", "ACHN renal", "active"],
  ["C=C(CNCCc1ccc(O)cc1)[C@@H]1CC[C@]2(CO)CC[C@]3(C)[C@H](CC[C@@H]4[C@@]5(C)CCC(NCCO)C(C)(C)[C@@H]5CC[C@]43C)[C@@H]12 (stereo partly drawn)", "ACHN renal", "active"],
  ["Cc1ccc(/C=N/Nc2nc(Nc3ccccc3)nc(-n3nc(C)cc3C)n2)cc1", "ACHN renal", "inactive"],
  ["Cc1nn(-c2ccccc2)c(Oc2ccccn2)c1-c1nc2ccccc2s1", "ACHN renal", "inactive"],
  ["O=c1oc2ccccc2cc1C1=NN=C(SCc2ccccc2)SC1", "ACHN renal", "inactive"],
  ["N#Cc1nn(-c2cc(=O)[nH]c3ccc(Cl)cc23)c(N)c1C#N", "ACHN renal", "inactive"]
]}
